pIC50: −log10 of the molar value.
Ok so here's the combined literature set: pIC50 for human 20 S proteasome (Homo sapiens, UniProt P28074).

Query string: Write down pIC50 measured for item COc1cc(C[C@H](NC(=O)CCn2cnc3ccccc32)B(O)O)ccc1F
Result string: 5.30 to 6.30

Query string: Write down pIC50 measured for item O=C(Cc1cnccn1)N[C@@H](Cc1coc2ccccc12)B(O)O
Result string: 6.30 to 7.30

Query string: Write down pIC50 measured for item COc1ccc(C[C@H](NC(=O)[C@@H](C)NC(=O)C2COC2)C(=O)N[C@@H](CC2=CCCC2)C(=O)[C@@]2(C)CO2)cc1
Result string: 5.35

Query string: Write down pIC50 measured for item O=C(N[C@@H](Cc1ccccc1)C(=O)N[C@@H](CC1CCC1)B(O)O)c1cccc(Oc2ccccc2)c1
Result string: > 7.30

Query string: Write down pIC50 measured for item Cc1nc(-c2cccc(S(=O)(=O)N[C@@H](Cc3ccccc3)C(=O)N[C@@H](CC3CCC3)B(O)O)c2)cs1
Result string: > 7.30

Query string: Write down pIC50 measured for item O=C(N[C@@H](CC1CCC1)B(O)O)[C@H](Cc1ccccc1)NS(=O)(=O)c1ccc2ncsc2c1
Result string: > 7.30

Query string: Write down pIC50 measured for item COc1ccc(CCC(=O)N[C@@H](Cc2coc3ccccc23)B(O)O)cc1
Result string: 6.30 to 7.30

Query string: Write down pIC50 measured for item Cc1cccc2c1OCC2C[C@H](NC(=O)Cc1ccccc1C(=O)N(C)C)B(O)O (stereo partly shown)
Result string: < 5.30

Query string: Write down pIC50 measured for item Cc1ccc(C[C@H](NC(=O)Cc2ccc(NS(C)(=O)=O)cc2)B(O)O)c(C)c1
Result string: < 5.30

Query string: Write down pIC50 measured for item O=C(N[C@@H](Cc1ccccc1)C(=O)N[C@@H](CC1CCC1)B(O)O)c1ccc2nc(-c3ccccc3)[nH]c2c1
Result string: > 7.30

Query string: Write down pIC50 measured for item CC(=O)N[C@@H](Cc1coc2ccccc12)B(O)O
Result string: 5.30 to 6.30

Query string: Write down pIC50 measured for item O=C(CCc1cccc(F)c1)N[C@@H](Cc1coc2ccccc12)B(O)O
Result string: > 7.30

Query string: Write down pIC50 measured for item O=C(CCn1cnc2ccccc21)N[C@@H](Cc1ccc(OC(F)(F)F)cc1)B(O)O
Result string: 6.30 to 7.30

Query string: Write down pIC50 measured for item Cc1cccc2c1OCC2C[C@H](NC(=O)Cc1ccccc1)B(O)O (stereo partly shown)
Result string: 5.30 to 6.30

Query string: Write down pIC50 measured for item Cc1ccc(C[C@H](NC(=O)[C@H](O)c2ccccc2)B(O)O)cc1
Result string: 5.30 to 6.30

Query string: Write down pIC50 measured for item COc1ccc(C[C@H](NC(=O)[C@@H](C)NC(=O)[C@H]2CCCO2)C(=O)N[C@@H](CC2CCCC2)C(=O)[C@@]2(C)CO2)cc1
Result string: 4.61

Query string: Write down pIC50 measured for item O=C(N[C@@H](Cc1ccccc1)C(=O)N[C@@H](CC1CCC1)B(O)O)c1cnccn1
Result string: > 7.30

Query string: Write down pIC50 measured for item O=C(N[C@@H](CC1CCC1)B(O)O)[C@H](Cc1ccccc1)NS(=O)(=O)c1cc(F)ccc1F
Result string: > 7.30

Query string: Write down pIC50 measured for item CCc1cccc(C[C@H](NC(=O)CCn2c(C)nc3ccccc32)B(O)O)c1
Result string: 6.30 to 7.30
